# assayed target: T1, His-tagged CD47 recombinant protein, CD47-His (human, UniProt Q08722 19-141, limits assumed)
# T1 construct: it is not restated for CD47-His; also called human CD47-His protein; antigen CD47-His; not shown: His tag
# protocol description: ELISA on coated CD47-His; Ab 0.021 nM
So I've got a bunch of binders here, and I need their OD450 nm values.
API note: the answer field is a bare number with no unit suffix.

Please list OD450 nm recorded for the binder 51E2F11 (antibody, V domains shown, Murine hybridoma antibody purified on protein G) VH: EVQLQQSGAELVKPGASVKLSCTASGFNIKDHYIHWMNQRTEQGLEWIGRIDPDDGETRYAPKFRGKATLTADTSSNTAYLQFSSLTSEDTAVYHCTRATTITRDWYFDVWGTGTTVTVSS VL: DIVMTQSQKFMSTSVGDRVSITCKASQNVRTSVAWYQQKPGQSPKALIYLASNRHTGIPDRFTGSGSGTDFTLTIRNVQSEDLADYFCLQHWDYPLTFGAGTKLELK
0.53

Please list OD450 nm recorded for the binder 132D1E5 (antibody, V domains shown, Murine hybridoma antibody purified on protein G) VH: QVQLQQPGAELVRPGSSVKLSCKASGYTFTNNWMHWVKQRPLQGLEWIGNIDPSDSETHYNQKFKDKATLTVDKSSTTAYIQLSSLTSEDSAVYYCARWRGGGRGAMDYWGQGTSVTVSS VL: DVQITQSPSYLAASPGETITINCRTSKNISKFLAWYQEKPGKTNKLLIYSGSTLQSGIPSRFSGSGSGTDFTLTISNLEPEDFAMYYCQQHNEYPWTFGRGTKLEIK
0.49

Please list OD450 nm recorded for the binder 4D10B11 (antibody, V domains shown, Murine hybridoma antibody purified on protein G) VH: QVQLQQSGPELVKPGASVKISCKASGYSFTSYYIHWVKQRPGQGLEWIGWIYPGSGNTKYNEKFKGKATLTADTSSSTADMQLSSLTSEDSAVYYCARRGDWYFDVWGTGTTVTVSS VL: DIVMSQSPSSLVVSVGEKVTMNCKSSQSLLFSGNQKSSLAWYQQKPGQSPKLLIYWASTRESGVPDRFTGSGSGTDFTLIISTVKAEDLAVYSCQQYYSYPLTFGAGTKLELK
0.69

Please list OD450 nm recorded for the binder 54G8G6 (antibody, V domains shown, Murine hybridoma antibody purified on protein G) VH: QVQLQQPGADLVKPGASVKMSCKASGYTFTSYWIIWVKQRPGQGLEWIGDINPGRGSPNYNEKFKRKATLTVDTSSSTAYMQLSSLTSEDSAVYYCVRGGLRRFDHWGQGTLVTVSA VL: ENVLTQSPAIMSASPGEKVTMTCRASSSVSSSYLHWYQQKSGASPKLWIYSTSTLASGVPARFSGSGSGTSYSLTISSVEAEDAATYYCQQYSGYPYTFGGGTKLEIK
0.62
